We begin with a simple list: items and their reported viability, T/C.
test system: 422866-222-R5-J1-PDC complex spheroids viability; test: Anticancer human tumor 422866-222-R5-J1-PDC patient-derived pancreatic adenocarcinoma cell line growth inhibition [RAS]; settings: second compound 1 µM; first compound 10 µM; hits give low values;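 note: spheroids exposed to compounds for 7 days; 100% = DMSO vehicle control viability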
Give the value, in units of %, as a plain number.

Example compounds with recorded viability, T/C:
| Compound | Measured Result |
| --- | --- |
| NC1c2ccccc2OC12CCN(c1cnc3c(N4CCCc5ncccc54)n[nH]c3n1)CC2 (stereo not given) + C=CC(=O)N1CCN(c2nc(OCC3CCCN3C)nc3c(F)c(-c4nc(N)cc(C)c4C(F)(F)F)c(Cl)cc23)C(C)C1 | 15.9 |
| CCC(CC)c1cc(NC2CCC(N)C2)n2nccc2n1 (stereo not given) + C#Cc1c(F)ccc2cc(O)cc(-c3ncc4c(N5CC6CCC(C5)N6)nc(OCC56CCCN5CC(F)C6)nc4c3F)c12 | 35.3 |

Entry Cc1nc(N2CCC3(CC2)COC(C)C3N)c(CO)nc1Sc1ccnc(N)c1Cl (stereo not given) + C=CC(=O)N1CCN(c2nc(OCC3CCCN3C)nc3c(F)c(-c4nc(N)cc(C)c4C(F)(F)F)c(Cl)cc23)C(C)C1 has what viability, T/C?
18.9

Next record, please: CC1(O)CCCC1n1c(=O)c(C(F)F)cc2cnc(NC3CCN(S(C)(=O)=O)CC3)nc21 (stereo not given) + C=CC(=O)N1CCN(c2nc(OCC3CCCN3C)nc3c(F)c(-c4nc(N)cc(C)c4C(F)(F)F)c(Cl)cc23)C(C)C1
40.1

Next record, please: CC1(O)CCCC1n1c(=O)c(C(F)F)cc2cnc(NC3CCN(S(C)(=O)=O)CC3)nc21 (stereo not given) + C#Cc1c(F)ccc2cc(O)cc(-c3ncc4c(N5CC6CCC(C5)N6)nc(OCC56CCCN5CC(F)C6)nc4c3F)c12
43.3
